test: Pharmacokinetics of 8-aminoguanine: plasma disposition; format: in vivo; conditions: Sprague-Dawley, rat, plasma, intravenous, 5 mg/kg, single bolus 5 mg/kg through the jugular catheter, read-out: half-life of first phase of decay (distribution from plasma into tissues) (converted)
measurementType: half-life (min)
Number in min, nothing else.

Q: What half-life value was documented for this compound, Nc1nc2[nH]c(N)nc2c(=O)[nH]1 ?
Ans: 22.8

----------
test: Pharmacokinetics of 8-aminoguanine: plasma disposition; format: in vivo; conditions: Sprague-Dawley, rat, plasma, intravenous, 5 mg/kg, single bolus 5 mg/kg through the jugular catheter, read-out: half-life of second phase (elimination from the body) (converted)
measurementType: half-life
Remember to quote the unit after the number.

Q: Suppose we examine the compound Nc1nc2[nH]c(N)nc2c(=O)[nH]1 [8-AG, 8-Aminoguanine] ; what half-life value has been reported?
Ans: 37 h
